src = paper PMC10397247

Biological target: T1, APC9291-AA
T1 chain: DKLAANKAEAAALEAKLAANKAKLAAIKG
Test: two-hybrid library CCmax;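 further: natural log of median RNA to DNA barcode read ratio; higher means stronger binding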
Details: mean of both orientations
recorded metric: interaction score

binder: DKLAAIKAEAAALEAENAALEAEAAALEG [APC1242-AA]
interaction score: -1.76
//
binder: DELAAIEAEAAALEAEAAALEAEAAALEG [APC222-AA]
interaction score: -1.82
//
binder: DKAAALKAEAAALEAELAAEEAKNAALKG [APC3265-AA]
interaction score: -1.49
//
binder: DKLAAIKAKLAAIKAKLAAIKAKNAALKG [APC1115-AA]
interaction score: -1.83
//
binder: DEAAALEAENAALEAKLAAEKAENAALEG [APC2474-AA]
interaction score: -1.71
//
binder: DKLAAEKAKNAALKAEAAALEAENAALEG [APC7524-AA]
interaction score: -1.72
//
binder: DKLAANKAKLAAIKAENAALEAKLAAIKG [APC9141-AA]
interaction score: -1.86
